Numbers sourced from patent US20250223358A1.

Tgt: T1, human CD3 (human, UniProt P07766 23-207; P04234 22-171; P09693 23-182)
T1 construct: whole, on cells; also called hCD3; CD3 on Jurkat cells
Protocol Text: FACS on HEK293T-hCD3mix cells; note: test concentration or dose not given here
Record form. Attribute: FACS MFI. Fill in for each entry.
One number for each entry, in MFI.

Example cases with answers are listed next.
Binder	FACS MFI / MFI
4-F12-F1-A4 (antibody, V domains shown, mouse monoclonal (hybridoma) antibody) VH: EVKLVESGGGLVKPGGSLKLSCAASGFTFSSYTMSWIRQTPAKRLEWVATISSGGGNTFYADSVKGRFTISRDNARNTLNLQMSSLRSEDTAMYYCARSLYYYDGTYVRKDYYAMDYWGQGSSVTVSS VL: DIQMTQSPASLSVSVGETVTISCRASENIFSNLAWYQQKQGKSPQLLVYAATNLAEGVPSRFSGSRSGTQFSLKINSLQSEDFGSYYCQQFWGTPWTFGGGTKLEVK	16800
7-D8-G12-E4 (antibody, V domains shown, mouse monoclonal (hybridoma) antibody) VH: EVKLVESGGGLVKPGGSLKLSCAASGFTFSSYPMSWVRQTPAKRLEWVATISSGGGNTYYPDSVKGRFTISRDNARNTLYLQMSSLRSEDTAMYYCARGLYWYFDVWGAGTTVTVSS VL: DIVLTQSPLSLPVSLGDQASISCRSSQSIAHSNGDTYLEWYLQNPGQSPKLLIYKVSNRISGVPDRFSGSGSGTDFTLKISRVEAEDLGVYYCFQGSHVPYTFGGGTKLEIK	65200

INPUT: What value of measured FACS MFI is listed for 8-B12-F9-B11 (antibody, V domains shown, mouse monoclonal (hybridoma) antibody) VH: EVQLVESGGGIVKPGGSRKLSCAASGFTFSDYGMHWVRQAPEKGLEWIAYISSASGKIYYADTVKGRFTISRDNAKNILFLQMTSLRSEDTAMYYCARVLRWSVNYVMDYWGQGTSVTVSS VL: DIVMTQSPSSLAVSAGEKVTMNCESSQSVLYSSNQKNYLAWYQQKPGQSPKLLIYWASTRESGVPDRFTGTGSGTDFTLTISSVQAEDLAVYYCHQYLSSWTFGGGTKLEIK ?
OUTPUT: 67100
